Target: BChE from equine serum (EqBChE) (Equus caballus, UniProt P81908)
Construct: butyrylcholinesterase originated from equine serum (EqBChE)
Sequence (P81908 whole entry): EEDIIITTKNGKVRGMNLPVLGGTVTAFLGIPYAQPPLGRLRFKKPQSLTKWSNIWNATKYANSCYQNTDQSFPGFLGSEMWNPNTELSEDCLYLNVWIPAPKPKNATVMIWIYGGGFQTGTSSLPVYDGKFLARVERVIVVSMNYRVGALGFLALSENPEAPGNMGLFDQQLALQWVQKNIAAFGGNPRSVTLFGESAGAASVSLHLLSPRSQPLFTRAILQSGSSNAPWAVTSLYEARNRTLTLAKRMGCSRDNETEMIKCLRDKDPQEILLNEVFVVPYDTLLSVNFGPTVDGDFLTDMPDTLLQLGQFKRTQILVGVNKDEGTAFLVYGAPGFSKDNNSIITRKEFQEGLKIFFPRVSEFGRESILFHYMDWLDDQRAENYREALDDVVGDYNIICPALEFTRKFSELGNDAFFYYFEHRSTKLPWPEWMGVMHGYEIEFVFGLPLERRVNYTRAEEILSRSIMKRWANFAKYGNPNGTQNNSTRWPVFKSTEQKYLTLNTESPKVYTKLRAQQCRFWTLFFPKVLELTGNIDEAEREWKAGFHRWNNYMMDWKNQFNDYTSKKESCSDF
Assay: Inhibition of BChE, modified Ellman's spectrophotometric method
Settings: EqBChE, Ellman's method; mean ± SD, n = three independent experiments
Description: The heterocycles 3 were screened for their ability to interfere with the function of AChE from electric eel (EeAChE) and BChE from equine serum (EqBChE) using Ellman’s method (Table 1). […] In addition, we calculated selectivity indexes (SI) that quantify the selectivity for AChE as more inhibited cholinesterase. […] Enzyme inhibition activity of 3 quantified as IC50 values was determined spectrophotometrically using modified Ellman’s method. […]
Criterion: IC50 strictly under 200 µM. Met: condition met. Not met: condition not met.

*Q* Hello, I'm reviewing records and need to know if IC50 of `CCCCCCCCCCCCc1nnc(-c2ccncc2)o1` is below 200 µM. Could you check?
*A* condition not met

*Q* Hello, I'm reviewing records and need to know if IC50 of `CCCCCCCCCCCCNc1nnc(-c2ccnc(Br)c2)o1` is below 200 µM. Could you check?
*A* condition not met

*Q* Hello, I'm reviewing records and need to know if IC50 of `CCCCCCCCCCCCNc1nnc(-c2ccc(C)cc2)o1` is below 200 µM. Could you check?
*A* condition met

*Q* Hello, I'm reviewing records and need to know if IC50 of `CCCCCCCCCCCCSc1nnc(-c2ccncc2)o1` is below 200 µM. Could you check?
*A* condition not met

*Q* Hello, I'm reviewing records and need to know if IC50 of `CCCCCCCCCCCCNc1nnc(-c2ccc(Br)cc2)o1` is below 200 µM. Could you check?
*A* condition not met

*Q* Hello, I'm reviewing records and need to know if IC50 of `CCCCCCCCCCCCNc1nnc(-c2ccc(C(C)(C)C)cc2)o1` is below 200 µM. Could you check?
*A* condition met

*Q* Hello, I'm reviewing records and need to know if IC50 of `CCCCCCCCCCCCNc1nnc(-c2ccc(I)cc2)o1` is below 200 µM. Could you check?
*A* condition not met

*Q* Hello, I'm reviewing records and need to know if IC50 of `CCCCCCCCCCCCNc1nnc(-c2ccncn2)o1` is below 200 µM. Could you check?
*A* condition not met

*Q* Hello, I'm reviewing records and need to know if IC50 of `CCCCCCCCCCCCNc1nnc(-c2ccc([N+](=O)[O-])cc2)o1` is below 200 µM. Could you check?
*A* condition met

*Q* Hello, I'm reviewing records and need to know if IC50 of `CCCCCCCCCCCCNc1nnc(-c2ccccc2)o1` is below 200 µM. Could you check?
*A* condition met

*Q* Hello, I'm reviewing records and need to know if IC50 of `CCCCCCCCCCCCNc1nnc(-c2ccncc2)s1` is below 200 µM. Could you check?
*A* condition met

*Q* Hello, I'm reviewing records and need to know if IC50 of `CCCCCCCCCCCCNc1nnc(-c2ccc(N(C)C)cc2)o1` is below 200 µM. Could you check?
*A* condition not met

*Q* Hello, I'm reviewing records and need to know if IC50 of `CCCCCCCCCCCCNc1nnc(-c2ccc(Cl)cc2)o1` is below 200 µM. Could you check?
*A* condition not met

*Q* Hello, I'm reviewing records and need to know if IC50 of `CCCCCCCCCCCCNc1nnc(-c2cccnc2)o1` is below 200 µM. Could you check?
*A* condition not met

*Q* Hello, I'm reviewing records and need to know if IC50 of `CCCCCCCCCCCCNc1nnc(-c2ccncc2)o1` is below 200 µM. Could you check?
*A* condition not met

*Q* Hello, I'm reviewing records and need to know if IC50 of `CCCCCCCCCCCCNc1nnc(-c2cnccn2)o1` is below 200 µM. Could you check?
*A* condition not met

*Q* Hello, I'm reviewing records and need to know if IC50 of `CCCCCCCCCCCCNc1nnc(-c2ccc(OC)cc2)o1` is below 200 µM. Could you check?
*A* condition not met

*Q* Hello, I'm reviewing records and need to know if IC50 of `CCCCCCCCCCCCNc1nnc(-c2ccc(F)cc2)o1` is below 200 µM. Could you check?
*A* condition not met

*Q* Hello, I'm reviewing records and need to know if IC50 of `CCCCCCCCCCCCNc1nnc(-c2ccnnc2)o1` is below 200 µM. Could you check?
*A* condition not met

*Q* Hello, I'm reviewing records and need to know if IC50 of `CCCCCCCCCCCCNc1nnc(-c2cc([N+](=O)[O-])cc([N+](=O)[O-])c2)o1` is below 200 µM. Could you check?
*A* condition not met

*Q* Hello, I'm reviewing records and need to know if IC50 of `CCCCCCCCCCCCNc1nnc(-c2ccccn2)o1` is below 200 µM. Could you check?
*A* condition not met
